The origin of these recorded values is paper PMC10447463.

# procedure text: Turbidity, derived count rate of scattered light
# Assay type: physicochemical
# recorded conditions: Log10 of derived count rate of scattered light (turbidity)
# Method: 4 µL of 1 mg/mL peptide fibrils solution is added to a 20 µL, 50 µM ThT–solution in PBS. The mixture is incubated for 15 min at RT to allow binding of ThT dye with β–sheet rich structures. […] Fluorescence spectra were recorded on an Infinite® M1000 PRO microplate reader (Tecan) at λem = 488 nm upon excitation at λex = 440 nm with 10 nm bandwidths and multiple reads per well (3×3). […] Furthermore, fluorescence microscopy was conducted by staining 1 µL preformed fibrils (1 mg/mL) with 9 µL ThT (50 µM). […]
readout: Log10 Count Rate
Write no unit; give the number alone.

Below are worked cases with known answers.
substance=MKIKIQINM result_value=2.9918
substance=KIKIQINMWA result_value=3.042

Note: attention shifts to another entry.
Q) So what's the measured Log10 Count Rate for this one? CHLHLQL
A) 3.062
